src = patent US20190233494A1

Molecular target: T1, RXFP1 receptor (endogenous, on OVCAR5 cells) (UniProt Q9HBX9 1-757, limits assumed)
T1 sequence (looked up): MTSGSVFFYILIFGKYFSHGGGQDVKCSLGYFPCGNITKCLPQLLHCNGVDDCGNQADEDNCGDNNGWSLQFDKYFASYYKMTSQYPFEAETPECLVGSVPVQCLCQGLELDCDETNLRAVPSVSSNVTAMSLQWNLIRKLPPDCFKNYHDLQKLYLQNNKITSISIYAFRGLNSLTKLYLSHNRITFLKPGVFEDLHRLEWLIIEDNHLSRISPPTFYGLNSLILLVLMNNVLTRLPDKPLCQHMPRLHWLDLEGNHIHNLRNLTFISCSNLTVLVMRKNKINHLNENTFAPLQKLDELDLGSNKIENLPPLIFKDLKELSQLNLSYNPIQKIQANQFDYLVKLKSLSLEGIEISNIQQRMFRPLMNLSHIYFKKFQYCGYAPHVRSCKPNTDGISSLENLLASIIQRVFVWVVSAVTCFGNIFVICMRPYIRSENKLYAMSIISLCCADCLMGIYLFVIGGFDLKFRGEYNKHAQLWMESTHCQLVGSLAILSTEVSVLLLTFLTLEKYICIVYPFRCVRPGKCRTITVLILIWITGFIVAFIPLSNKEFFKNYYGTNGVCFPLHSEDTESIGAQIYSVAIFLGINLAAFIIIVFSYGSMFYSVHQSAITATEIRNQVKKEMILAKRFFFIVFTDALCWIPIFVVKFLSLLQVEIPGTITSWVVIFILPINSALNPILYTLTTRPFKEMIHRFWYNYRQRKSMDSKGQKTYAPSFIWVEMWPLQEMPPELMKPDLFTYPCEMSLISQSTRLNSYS
Assay: cell-based or functional assay
Starred links: 1 amine or outer side, 2 acyl side, 3 side chain; linkers in the order of their positions; H or OH if unused. Non-standard residues stand in square brackets, D forms with d. Groups on a side chain read outwards from the residue. *: point of attachment. TTDS = 4-[3-[2-[2-(3-aminopropoxy)ethoxy]ethoxy]propylamino]-4-oxo-butanoyl; γGlu = O=C(O)[C@H](CCC(=O)[*:2])N[*:1]; Palmitoyl = CCCCCCCCCCCCCCCC(=O)*; Aib = CC(C)(N)C(=O)O
parameter: EC50 (nM), OVCAR 5 cells (cAMP)
Number in nM, nothing else.

>>> numeric_value("Ac-LEGREKVRAK(Ac)I[Aib][Aib]EGK([TTDS-TTDS-TTDS-γGlu-γGlu-γGlu-Palmitoyl])STFVRRAK(Ac)-NH2 [peptide of SEQ ID NO: 94]")
1.74

Okay, next one:
Consider the binder shown here: Ac-LEGREKVRAK(Ac)I[Aib][Aib]EGK([TTDS-TTDS-TTDS-γGlu-γGlu-γGlu-Palmitoyl])STWS[Aib]RK(Ac)K-NH2 [peptide of SEQ ID NO: 68] What is its recorded EC50 (nM), OVCAR 5 cells (cAMP)?
0.88
